# method description: yeast display, Sf9 membrane polyspecificity reagent, FACS + sequencing; frameworks hold sequencing errors
readout type: polyreactivity (PSR sort gate)

Completed entries (count: 5):
Asked: I'd like to know its polyreactivity (PSR sort gate). The sequence in question is QVQLVESGGGLVQAGGSLRLSCAASGSIFGRYVMGWYRQAPGKERELVAAISTSGDSTYYADSVKGRFTISRDNAKNTVYLQMNSLKPEDTAVYYCNARKRTFPSRSIGGDYWGQGTQVTVSS
Given back: high polyreactivity

Asked: I'd like to know its polyreactivity (PSR sort gate). The sequence in question is QVQLVESGGGLVQAGGSLRLSCAASGRTLAFYAMGWYRQAPGKERELVAAITRGGGTYYADSVKGRFTISRDNAKNTVDLQMNSLIPEDTAVYYCNADSGFRWGAFDYWGQGTQLTVSS
Given back: low polyreactivity

Asked: I'd like to know its polyreactivity (PSR sort gate). The sequence in question is QVQLVESGGGLVQAGGSLRLSCAASGLTFRYYAMGWYRQAPGKERELVAAITRRGSTYYADSVQGRFTISRDNAKNTVYLQMNSLKPEDTAVYYCAADDPYTPQYPDVTYDYWGQGTQVTVSS
Given back: high polyreactivity

Asked: I'd like to know its polyreactivity (PSR sort gate). The sequence in question is QVQLVESGGGLVQAGGSLRLSCAASGFIFYDYAMGWYRQAPGKERELVAAIRSSDGGTYYADSVKGRFTISRDNAKNTVYLQMNSLKPEDTAVYYCAAEIRWGWHPYYDYDEYWGQGTQVTVSS
Given back: low polyreactivity

Asked: I'd like to know its polyreactivity (PSR sort gate). The sequence in question is QVQLVESGGGLVQAGGSLRLSCAASGIIFNYYAMGWYRQAPGKERELVAAIRISDTTYYADSVKGRFTISRDNAKNTVYLQMNSLKPEDTAVYYCNTLYYYYYGEVYVRDYDYWGQGTQVTVSS
Given back: low polyreactivity

---
Asked: I'd like to know its polyreactivity (PSR sort gate). The sequence in question is QVQLVESGGGLVQAGGSLRLSCAASGLIFGPYAMGWYRQAPGKERELVAAISARGGSTRYADSVKGRFTISRDNAKNTVYLQMNSLKPEDTAVYYCAASTWYGYDYWGQGTQVTVSS
Given back: high polyreactivity

Asked: I'd like to know its polyreactivity (PSR sort gate). The sequence in question is QVQLVESGGGKVKAGGSLRISCAASGRTYRYAMGWYRQAPGKERELVAAITSGGRTNYADSVKGRFTISRDNAKNTVYLQMNSLKPEDTAVYYCAAQWYTVITSWYGYWGQGTQVTVSS
Given back: low polyreactivity

Value source: the nanobody polyreactivity screen of Harvey et al. (2022)
